Data credit: patent US20130158075A1

- SYSTEM: hDGAT1 (Homo sapiens)
- Construct: made in house; host or cells: Sf9 insect cells (baculovirus); microsomal fraction
- Sequence (O75907 1-488): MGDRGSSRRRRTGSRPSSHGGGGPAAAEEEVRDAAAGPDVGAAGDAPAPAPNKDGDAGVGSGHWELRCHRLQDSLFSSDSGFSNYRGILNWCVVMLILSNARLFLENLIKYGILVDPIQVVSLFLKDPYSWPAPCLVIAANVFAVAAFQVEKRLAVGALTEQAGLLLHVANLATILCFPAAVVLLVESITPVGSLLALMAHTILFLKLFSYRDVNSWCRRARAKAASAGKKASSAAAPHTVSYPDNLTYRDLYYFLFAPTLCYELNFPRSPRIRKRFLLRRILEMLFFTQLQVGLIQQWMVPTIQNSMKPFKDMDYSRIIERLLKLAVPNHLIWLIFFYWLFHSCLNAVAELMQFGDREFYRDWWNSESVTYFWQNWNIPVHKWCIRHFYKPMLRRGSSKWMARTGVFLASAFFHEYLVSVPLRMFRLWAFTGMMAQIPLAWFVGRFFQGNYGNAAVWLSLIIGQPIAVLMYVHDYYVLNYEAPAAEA
- ASSAY EXPLANATION: In-vitro DGAT1 assay with hDGAT1 microsomes from Sf9 cells (14C oleoyl CoA, scintillation counting)
- Type: biochemical
- CONDITION DETAILS: read-out: Percentage inhibition of hDGAT1
QUANTITY: inhibition at 1 µM

[[record]]
molecule = "CC(C)(CC(=O)O)Cc1ncc(-c2ccc(NC(=O)Nc3ccccc3Cl)cc2)s1"
data_value = "> 50%"

[[record]]
molecule = "Cc1ccc(NC(=O)Nc2ccc(-c3cnc(CCCC(=O)O)s3)cc2)cc1C"
data_value = "> 50%"

[[record]]
molecule = "O=C(Nc1ccc(-c2cnc(C34CC5CC(CC(C(=O)O)(C5)C3)C4)s2)cc1)Nc1cccc(C(F)(F)F)c1"
data_value = "> 50%"

[[record]]
molecule = "O=C(O)CCc1ncc(-c2ccc(NC(=O)Nc3cccc(C(F)(F)F)c3)cc2)s1"
data_value = "> 50%"

[[record]]
molecule = "COc1ccc(NC(=O)Nc2ccc(-c3cnc(C4CCC(C(=O)O)CC4)s3)cc2)c(C)c1 (stereo not shown)"
data_value = "> 50%"

[[record]]
molecule = "O=C(O)CN1CCC(c2ncc(-c3ccc(NC(=O)Nc4ccc(F)cc4F)cc3)s2)CC1"
data_value = "> 50%"

[[record]]
molecule = "CC(C)(CCc1ncc(-c2ccc(NC(=O)NCc3ccccc3)cc2)s1)C(=O)O"
data_value = "> 50%"

[[record]]
molecule = "CC(=O)NC(=O)CC1CCC(c2ncc(-c3ccc(NC(=O)Nc4ccccc4Cl)cc3)s2)CC1 (stereo not shown)"
data_value = "> 50%"

[[record]]
molecule = "CC(C)(O)C1CCC(c2ncc(-c3ccc(NC(=O)Nc4ccc(F)cc4F)cc3)s2)CC1 (stereo not shown)"
data_value = "> 50%"

[[record]]
molecule = "O=C(Nc1ccc(-c2cnc(C3CCN(S(=O)(=O)C(F)(F)F)CC3)s2)cc1)Nc1ccccc1F"
data_value = "20 to 50%"

[[record]]
molecule = "CCCCOc1ccc(C(=O)Nc2ccc(-c3cnc(CCC(=O)O)s3)cc2)cc1"
data_value = "> 50%"

[[record]]
molecule = "Cc1nnc(CC2CCC(c3ncc(-c4ccc(NC(=O)c5c(F)cccc5F)cc4)s3)CC2)o1 (stereo not shown)"
data_value = "20 to 50%"

[[record]]
molecule = "CC(C)(N)CC1CCC(c2ncc(-c3ccc(NC(=O)Nc4cc(F)c(F)cc4F)cc3)s2)CC1 (stereo not shown)"
data_value = "> 50%"

[[record]]
molecule = "CC(C)(NS(=O)(=O)C(F)(F)F)c1ncc(-c2ccc(NC(=O)Nc3ccccc3F)cc2)s1"
data_value = "> 50%"

[[record]]
molecule = "O=C(O)CC1CCC(c2ncc(-c3ccc(NC(=O)Nc4ccccc4F)cc3)s2)CC1 (stereo not shown)"
data_value = "> 50%"

[[record]]
molecule = "Cc1oc(-c2ccccc2)nc1C(=O)Nc1ccc(-c2cnc(C3CCC(CC(=O)O)CC3)s2)cc1 (stereo not shown)"
data_value = "> 50%"

